Biological target: CDK4/cyclin D1 (Homo sapiens, UniProt P11802)
Sequence (P11802 whole entry): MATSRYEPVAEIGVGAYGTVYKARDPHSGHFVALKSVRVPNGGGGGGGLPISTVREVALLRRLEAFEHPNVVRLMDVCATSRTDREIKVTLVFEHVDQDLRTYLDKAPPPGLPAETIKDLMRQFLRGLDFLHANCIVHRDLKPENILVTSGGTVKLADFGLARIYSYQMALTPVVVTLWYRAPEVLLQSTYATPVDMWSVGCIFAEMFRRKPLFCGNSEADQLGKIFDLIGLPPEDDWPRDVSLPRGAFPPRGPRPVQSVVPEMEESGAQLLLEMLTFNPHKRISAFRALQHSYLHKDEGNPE
Sequence (P24385 whole entry partner): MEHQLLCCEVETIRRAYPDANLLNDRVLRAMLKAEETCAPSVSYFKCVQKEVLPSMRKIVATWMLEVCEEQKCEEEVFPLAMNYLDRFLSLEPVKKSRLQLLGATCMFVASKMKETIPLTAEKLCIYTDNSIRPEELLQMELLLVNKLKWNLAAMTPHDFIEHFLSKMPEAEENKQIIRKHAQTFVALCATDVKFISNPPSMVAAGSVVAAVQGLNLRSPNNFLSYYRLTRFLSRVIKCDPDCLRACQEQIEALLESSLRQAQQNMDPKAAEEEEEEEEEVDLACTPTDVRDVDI
Experiment: HotSpot in vitro kinase assay CDK4/cyclin D1
Format: biochemical
Settings: read-out: IC50 CDK4/cyclin D1
reportedProperty: IC50

Req: // returns reported IC50 for input N/N=C(\N)c1cn(C2OC(CO)C(O)C2O)c2ncnc(N)c12 (stereo not shown) [SLM6]
Resp: > 10 µM

----------
Target: CDK9/cyclin T1 (Homo sapiens)
Sequence (P50750 whole entry): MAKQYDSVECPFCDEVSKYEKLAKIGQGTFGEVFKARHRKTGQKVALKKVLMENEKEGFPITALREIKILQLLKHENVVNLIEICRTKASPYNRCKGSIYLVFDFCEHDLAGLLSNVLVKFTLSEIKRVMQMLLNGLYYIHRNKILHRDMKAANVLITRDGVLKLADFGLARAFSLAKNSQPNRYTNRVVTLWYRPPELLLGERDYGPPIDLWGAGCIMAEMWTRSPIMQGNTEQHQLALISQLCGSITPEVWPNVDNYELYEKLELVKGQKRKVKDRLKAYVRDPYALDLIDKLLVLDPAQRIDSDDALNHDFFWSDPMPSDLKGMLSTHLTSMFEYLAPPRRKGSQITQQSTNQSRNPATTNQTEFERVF
Sequence (O60563 whole entry partner): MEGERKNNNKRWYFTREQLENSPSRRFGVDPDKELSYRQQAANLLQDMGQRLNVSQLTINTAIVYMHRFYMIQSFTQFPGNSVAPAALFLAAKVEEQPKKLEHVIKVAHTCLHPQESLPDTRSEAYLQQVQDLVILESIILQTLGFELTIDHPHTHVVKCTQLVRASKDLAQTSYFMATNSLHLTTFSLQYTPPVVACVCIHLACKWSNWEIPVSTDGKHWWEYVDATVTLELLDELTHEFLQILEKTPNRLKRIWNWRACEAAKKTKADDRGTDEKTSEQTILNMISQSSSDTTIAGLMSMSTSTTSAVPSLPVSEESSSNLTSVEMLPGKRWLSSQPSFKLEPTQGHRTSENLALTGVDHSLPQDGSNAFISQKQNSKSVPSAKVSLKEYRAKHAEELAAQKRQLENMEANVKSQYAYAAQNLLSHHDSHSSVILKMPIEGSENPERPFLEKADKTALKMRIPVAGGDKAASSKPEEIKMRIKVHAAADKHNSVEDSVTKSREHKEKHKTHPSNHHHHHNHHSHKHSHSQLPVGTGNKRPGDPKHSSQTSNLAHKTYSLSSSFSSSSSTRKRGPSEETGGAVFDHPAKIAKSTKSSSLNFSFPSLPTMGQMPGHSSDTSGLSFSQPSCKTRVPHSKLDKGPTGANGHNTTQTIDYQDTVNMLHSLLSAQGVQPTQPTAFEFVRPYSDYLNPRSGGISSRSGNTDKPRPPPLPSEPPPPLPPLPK
Settings: read-out: IC50 CDK9/cyclin T1 kinase activity
reportedProperty: IC50 (nM)
// units = nM; emit number, no label

Req: Requested field: IC50. Item: N/N=C(\N)c1cn(C2OC(CO)C(O)C2O)c2ncnc(N)c12 (stereo not shown)
Resp: 133

----------
Target: CDK2/cyclin A (Homo sapiens, UniProt P24941)
Conditions: read-out: IC50 CDK2/cyclin A
reportedProperty: IC50

Req: Consider the compound shown here: N/N=C(\N)c1cn(C2OC(CO)C(O)C2O)c2ncnc(N)c12 (stereo not shown) [SLM6] What is its recorded IC50?
Resp: < 300 nM

----------
Test system: MM cells (RPMI-8226, NCI-H929, U266B1, MM.1S)
Experiment: CellTiter-Glo cell viability, multiple myeloma cell lines
Format: cell-based, human
Settings: RPMI-8226 cells, 24 h
reportedProperty: Concentrations that significantly reduced MM cell viability

Record excerpt, results attached:
{"compound": "NC(=O)c1cn([C@@H]2O[C@H](CO)[C@@H](O)[C@H]2O)c2ncnc(N)c12 [sangivamycin, reference compound]", "testResult": "less than 250 nM"}
{"compound": "N=C(N)c1cn(C2OC(CO)C(O)C2O)c2ncnc(N)c12 (centres unmarked)", "testResult": "less than 250 nM"}
{"compound": "N/N=C(\\N)c1cn(C2OC(CO)C(O)C2O)c2ncnc(N)c12 (centres unmarked)", "testResult": "less than 250 nM"}
{"compound": "NNc1c(C(N)=O)c2c(N)ncnc2n1[C@@H]1O[C@H](CO)[C@@H](O)[C@H]1O", "testResult": "less than 250 nM"}

Req: Entry under review: N/C(=N\O)c1cn(C2OC(CO)C(O)C2O)c2ncnc(N)c12 (centres unmarked) . Reported Concentrations that significantly reduced MM cell viability?
Resp: less than 250 nM
